Listing of entries alongside the reported cytotoxicity at 70.5 h.
# procedure_details: Human HepG2 cell viability assay in 384 well format
# Format: toxicity, cell-based
# Design: dose 125 nL, time 70.5 hour; concentration not given beside the values
# assay_setup: HepG2 cells, read-out: Inhibition
observation_type: cytotoxicity at 70.5 h (%)

molecule: O=C(c1ccco1)N1C[C@H]2CCCN(Cc3ccoc3)[C@H]2C1
result_value: -9.66

molecule: Cc1ccc(C(=O)N(CC2CCCO2)c2ccncc2)o1 (configuration not stated)
result_value: -8.12

molecule: O=C(c1cc(F)cc2[nH]cnc12)N1CCCC1Cn1cccn1 (configuration not stated)
result_value: -8.91

molecule: COCCn1ccc(NC(=O)Nc2cccnc2)n1
result_value: -2.62

molecule: CCCc1cncnc1N1CCC(NCc2ccncc2)CC1
result_value: -13.1

molecule: O=C(c1ccnnc1)N1CC[C@]2(C[C@H](Oc3ncccc3F)CO2)C1
result_value: -5.53

molecule: Cc1nn(C)c(C)c1C1CCCN1C(=O)Cc1cn2ccsc2n1 (configuration not stated)
result_value: 23.9

molecule: NC(=O)CSc1ccccc1NC(=O)CC1C=CCC1 (configuration not stated)
result_value: 27.1

molecule: COc1ccc(Cn2cc(C(=O)N(C)Cc3cnccn3)nn2)cc1
result_value: -14.3

molecule: Cc1nc(O)cc(CN2CC=C(c3cnn(-c4ccccc4)c3)CC2)n1
result_value: 14.1

molecule: Cc1nccn1CC1CCCN1S(=O)(=O)Cc1ccccc1 (configuration not stated)
result_value: -22.1

molecule: N#Cc1c(F)cccc1NCCCOCC1CCOC1 (configuration not stated)
result_value: -0.771

molecule: COc1ccc(N2CCN(Cc3nc(CSC)no3)CC2=O)cc1
result_value: 4.47

molecule: O=C(CCC1CCCO1)NCc1ccc(Br)cc1F (configuration not stated)
result_value: 12.7

molecule: O=c1[nH]c2nc(N3CCCC3)ncc2c(=O)n1-c1cccc(F)c1
result_value: -16.9

molecule: O=C(NCCCN1CCCC1)c1n[nH]c(=O)c2ccccc12
result_value: -9.07

molecule: CC(C)n1cc(S(=O)(=O)NCCc2nnc3ccccn23)cn1
result_value: 5.41

molecule: CCCN1CCC(NC(=O)c2csc(C)c2-c2ccc(C)cc2)CC1
result_value: -0.127

molecule: COCCN1CCc2c(cnc(-c3ccccc3)c2C(=O)O)C1
result_value: -9.19

molecule: Cn1ccc(CN2CCN(CC3CC3)CC2)cc1=O
result_value: 21.6

molecule: CNS(=O)(=O)CCCN(C)Cc1cc(C)ccc1OC
result_value: -13.2

molecule: Cc1ccccc1CS(=O)(=O)Cc1nc(C2CC2)no1
result_value: -3.39

molecule: c1ccc(-c2cc(CN3C[C@@H]4CC[C@H](C3)N(CC3CCC3)C4)on2)cc1
result_value: -11.6

molecule: COCCN1CCC(NCc2ccc(Cl)cc2)C1 (configuration not stated)
result_value: -11.1

molecule: c1cncc(CN2CC[C@@H]3[C@@H]2CCN3Cc2ccc3c(c2)OCO3)c1
result_value: 0.903

molecule: COc1cccc(-c2noc(-c3ccc(NCCCN)nc3)n2)c1OC
result_value: 2.21

molecule: CN(Cc1nc(-c2ccccc2)c[nH]1)C(=O)NCC(=O)NC(C)(C)C
result_value: -5.84

molecule: CC(C)C(=O)NCCNC(=O)C12CCC(=O)N1c1cc(Cl)ccc1S2 (configuration not stated)
result_value: -1.8

molecule: CC(=O)N1CCOCC2(CN(Cc3ccc(C)o3)CCO2)C1 (configuration not stated)
result_value: 28.8

molecule: CN1CCN(C(=O)[C@@H]2C[C@@H]3CCN(c4cccc(F)c4)C[C@H]3O2)CC1
result_value: -11.9

molecule: Cc1nc(CN2CCc3ncnc(-c4ccc(F)cc4)c3CC2)cs1
result_value: -4.74

molecule: COc1ccc(C2=CCN(C(=O)CN(C)CC(N)=O)CC2)cc1
result_value: -2.43

molecule: Cc1ccc(-c2cc(N)c(=O)n(C(C)C(=O)NC(C)C)n2)o1 (configuration not stated)
result_value: -11.9

molecule: CCC1CN(CC(=O)Nc2sccc2C#N)CCO1 (configuration not stated)
result_value: -8.24

molecule: COc1ccc2c(c1)OC1(CCN(Cc3ccccc3C)CC1)CC2=O
result_value: -3.9

molecule: COCCN(C)C[C@@H]1CN(C(=O)c2ccc(O)c(Cl)c2)C[C@@H]1CO
result_value: -4.52

molecule: COc1cccc(COC(C)C(=O)NCc2nnc3n2CCC3)c1 (configuration not stated)
result_value: -1.81

molecule: CC(CNC(=O)c1c[nH]nn1)Oc1ccccc1Br (configuration not stated)
result_value: -10.7

molecule: c1ccc(-n2ccc(CNC3CCc4ncnn4C3)n2)cc1 (configuration not stated)
result_value: -5.75

molecule: Cc1csc(N2CCN(Cc3ccn(C)c(=O)c3)CC2)n1
result_value: -5.98

molecule: c1cncc(COc2ccccc2CNC2CCc3ncnn3C2)c1 (configuration not stated)
result_value: -5.98

molecule: Cc1cccc(COC[C@H]2CC[C@H]3[C@H](CCN3C(=O)CC3CC3)O2)n1
result_value: -6.89

molecule: COCC1COCCC12CCN(C(=O)COc1ccccc1)CC2 (configuration not stated)
result_value: -14.3

molecule: Cc1cc(C)n(CC(=O)N(C)Cc2csc(-c3cccs3)n2)c(=O)n1
result_value: 6.7

molecule: CC(C)CC(NC(=O)c1ccco1)c1nnc2ccccn12 (configuration not stated)
result_value: -24.3

molecule: Cc1cccc(NC(=O)c2sc(C)nc2C)n1
result_value: -11.8

molecule: COCCOc1ccc(F)cc1NCc1nc2ccccc2n1C
result_value: 11.4
